# Tested on: HCV NS3 protease variant replicon V36M
# test: microbe, parasite or virus in culture
# Type: cell-based
# recordedConditions: V36M; ratio of mutant IC50 to Wild type IC50 for the same inhibitor
metricName: Fold Change
Answers are plain numbers.

Below, each entry is followed by its recorded Fold Change result.
compound | reportedValue
CCN(CC)C1CCN(C(=O)Cn2c(-c3ccc(Cl)cc3)c(C3CCCCC3)c3ccc(C(=O)O)cc32)CC1 [Formula III] | 0.7
CCC[C@H](NC(=O)[C@@H]1[C@H]2CCC[C@H]2CN1C(=O)[C@@H](NC(=O)[C@@H](NC(=O)c1cnccn1)C1CCCCC1)C(C)(C)C)C(=O)C(=O)NC1CC1 [VX-950] | 7.3
C[C@@]1(O)[C@H](O)[C@@H](CO)O[C@H]1n1ccc(N)nc1=O [Formula I] | 1.2
O=c1c(C2=NS(=O)(=O)c3ccccc3N2)c(O)c2ccccc2n1NC1CCC1 [Formula II] | 1.0

Please examine the following record next.
In one line, give reported Fold Change of the entry NC(=O)c1ncn([C@@H]2O[C@H](CO)[C@@H](O)[C@H]2O)n1 [Ribavirin, reference compound] .
0.6
